# Tested on: HEK-293T
# assay.remarks: Multiplex assay against HEK293T
# Format: toxicity, cell-based
# measurement.context: human, 48 h, 10 µM, compound concentration 10 uM, replicate 1
parameter.measured: Population Membrane Permeable-Phenotype (%)
Kindly answer with a numeric value in %, unit omitted.

The following molecules have reported results that may help.
# molecule, recorded.result
records = [
    ("COc1cc(N2CCC(N(C)C)CC2)ccc1Nc1ncc(Cl)c(Nc2ccccc2P(C)(C)=O)n1", 0),
    ("CCc1cc2c(cc1CC)CC(NC[C@H](O)c1ccc(O)c3[nH]c(=O)ccc13)C2 [INDACATEROL]", 25),
    ("CC(C)Oc1ccc(C(=O)N[C@H](CNC(=O)CN(C)C)Cc2ccc(-c3cn4cccc([C@H](C)O)c4n3)cc2)cc1Cl [GSK-923295A]", 3),
]

Population Membrane Permeable-Phenotype (%) on HEK-293T for CC(C)N1CCC(C)(C)c2cc(C#Cc3ccc(C(=O)O)cc3)ccc21 is 7

---

# Test system: Fibroblast
# assay.remarks: Multiplex assay against human fibroblast
# Type: toxicity, cell-based
# measurement.context: 24 h, 1 µM, compound concentration 1 uM, replicate 2
Measured Population Apoptotic (%) accompanies every entry in the list below.
Kindly answer with a numeric value in %, unit omitted.

# molecule, unit.spec, Population Apoptotic (%)
measured = [
    ("O=C(O)c1ccc2cc(-c3ccc(O)c(C45CC6CC(CC(C6)C4)C5)c3)ccc2c1 [O-DEMETHYLATED ADAPALENE]", "%", 100),
    ("CCc1cc2c(cc1CC)CC(NC[C@H](O)c1ccc(O)c3[nH]c(=O)ccc13)C2 [INDACATEROL]", "%", 14),
    ("Cc1cc2c(cc1N1C(=O)c3cccc4c(CCCO)ccc(c34)C1=O)n(C)c(=O)n2C", "%", 40),
]

response.value for CC(C)N1CCC(C)(C)c2cc(C#Cc3ccc(C(=O)O)cc3)ccc21 (field: Population Apoptotic (%)) = 50

response.value for COc1cc2c(Nc3ccc(NC(=O)c4ccccc4)cc3)ncnc2cc1OCCCN1CCOCC1 (field: Population Apoptotic (%)) = 58

response.value for CN(C)CCOc1ccc(-c2nc(-c3ccncc3)c(-c3ccc4c(c3)CC/C4=N\O)[nH]2)cc1 [SB590885] (field: Population Apoptotic (%)) = 90

response.value for CNC(=O)c1cc(Oc2ccc(NC(=O)Nc3cc(C(C)(C)C)nn3-c3ccc4ncccc4c3)c(F)c2)ccn1 [REBASTINIB] (field: Population Apoptotic (%)) = 33

response.value for CNC(=O)c1nn(C)c2c1C(C)(C)Cc1cnc(Nc3ccc(N4CCN(C)CC4)cc3)nc1-2 [MILCICLIB] (field: Population Apoptotic (%)) = 50

response.value for Nc1ccc(C(=O)Nc2cccc(-c3nc(N4CCOCC4)c4oc5ncccc5c4n3)c2)cn1 (field: Population Apoptotic (%)) = 21

response.value for CCOc1cc(N2CCC(O)CC2)ccc1Nc1ncc2c(n1)N(C1CCCC1)CCC(=O)N2C (field: Population Apoptotic (%)) = 66

response.value for FC(F)c1nc2ccccc2n1-c1nc(N2CCOCC2)nc(N2CCOCC2)n1 [ZSTK-474] (field: Population Apoptotic (%)) = 0

response.value for COc1cc(N2CCC(N(C)C)CC2)ccc1Nc1ncc(Cl)c(Nc2ccccc2P(C)(C)=O)n1 (field: Population Apoptotic (%)) = 57

---

Measured Population Fragmented Nuclei (%) accompanies every entry in the list below.
# Test system: Fibroblast
# assay.remarks: Multiplex assay against human fibroblast
# Format: toxicity, cell-based
# measurement.context: 48 h, 1 µM, compound concentration 1 uM, replicate 1
Kindly answer with a numeric value in %, unit omitted.

# compound, parameter.measured, recorded.result
rows = [
    ("CCCn1c(=O)c2[nH]c(C34CC5CC(CC3C5)C4)nc2n(CCC)c1=O", "Population Fragmented Nuclei (%)", 28),
    ("O=C(O)c1ccc2cc(-c3ccc(O)c(C45CC6CC(CC(C6)C4)C5)c3)ccc2c1", "Population Fragmented Nuclei (%)", 61),
    ("Cc1cc2c(cc1N1C(=O)c3cccc4c(CCCO)ccc(c34)C1=O)n(C)c(=O)n2C", "Population Fragmented Nuclei (%)", 31),
    ("CC(=O)c1cc(-c2cc(C(=O)NC3CC3)ccc2C)c2ncccn12", "Population Fragmented Nuclei (%)", 40),
    ("COc1cc2c(NC3CCN(C(C)C)CC3)nc(N3CCC(F)(F)CC3)nc2cc1OCCCN1CCCC1", "Population Fragmented Nuclei (%)", 44),
    ("CCn1c(-c2nonc2N)nc2cnc(Oc3cccc(NC(=O)c4ccc(OCCN5CCOCC5)cc4)c3)cc21 [GSK-269962A]", "Population Fragmented Nuclei (%)", 28),
    ("CC(C)N1CCC(C)(C)c2cc(C#Cc3ccc(C(=O)O)cc3)ccc21", "Population Fragmented Nuclei (%)", 47),
    ("CNc1oc(-c2cccc3ccccc23)nc1C#N", "Population Fragmented Nuclei (%)", 71),
]

Population Fragmented Nuclei (%) on Fibroblast for Cl.Cl.Nc1ncnc2c1c(-c1cccc(OCc3ccccc3)c1)cn2[C@H]1C[C@@H](CN2CCC2)C1 is 36

---

# Tested on: Fibroblast
# assay.remarks: Multiplex assay against human fibroblast
# Assay type: toxicity, cell-based
# measurement.context: 12 h, 1 µM, compound concentration 1 uM, replicate 2
Record Y whenever Population Hoechst High Intensity Objects (%) is at 10% or higher; record N when lower.

Examples with answers:
# compound, assigned.label
records = [
    ("O=C(O)c1ccc2cc(-c3ccc(O)c(C45CC6CC(CC(C6)C4)C5)c3)ccc2c1", "N"),
    ("CCOc1cc2ncc(C#N)c(Nc3ccc(OCc4cccc(F)c4)c(Cl)c3)c2cc1NC(=O)/C=C/CN(C)C", "Y"),
    ("CN(C)CCOc1ccc(-c2nc(-c3ccncc3)c(-c3ccc4c(c3)CC/C4=N\\O)[nH]2)cc1", "Y"),
    ("CCC(=O)O[C@]1(C(=O)SCF)[C@H](C)C[C@H]2[C@@H]3C[C@H](F)C4=CC(=O)C=C[C@]4(C)[C@@]3(F)[C@@H](O)C[C@@]21C [FLUTICASONE PROPIONATE]", "Y"),
    ("CNC(=O)c1nn(C)c2c1C(C)(C)Cc1cnc(Nc3ccc(N4CCN(C)CC4)cc3)nc1-2", "Y"),
]

Check if Population Hoechst High Intensity Objects (%) >= 10% (inclusive). Item: CC(=O)c1cc(-c2cc(C(=O)NC3CC3)ccc2C)c2ncccn12
N

Check if Population Hoechst High Intensity Objects (%) >= 10% (inclusive). Item: COc1ccc(NS(=O)(=O)c2sc3ccc(Cl)cc3c2C)cc1N1CCNCC1.Cl
Y

Check if Population Hoechst High Intensity Objects (%) >= 10% (inclusive). Item: CC(C)N1CCC(C)(C)c2cc(C#Cc3ccc(C(=O)O)cc3)ccc21
Y

---

# Test system: Fibroblast
# assay.remarks: Incucyte cell viability with human fibroblast; further: filed as whole numbers so only -1 and 0 and 1 occur
# Format: toxicity, cell-based
# measurement.context: 12 h, 10 µM, compound concentration 10 uM, replicate number 1, timepoint 12 hours
Measured Growth Rate accompanies every entry in the list below.

# compound, target.system, parameter.measured, recorded.result
data = [
    ("CCCCc1nc2ccc(NC(=O)NC3CCCCC3)cc2n1Cc1ccc(-c2ccccc2C(=O)O)cc1", "Fibroblast", "Growth Rate", 0),
    ("N#CC1(c2ccccn2)CCN(Cc2cc(C(=O)N3CCCC3)c(=O)n3ccccc23)CC1 [MSD-M1PAM-NC]", "Fibroblast", "Growth Rate", 1),
    ("CCN(CC)CCCCC1CCN(CC(=O)N2c3ccccc3C(=O)Nc3cccnc32)CC1", "Fibroblast", "Growth Rate", 1),
    ("CCOc1cc2ncc(C#N)c(Nc3ccc(OCc4cccc(F)c4)c(Cl)c3)c2cc1NC(=O)/C=C/CN(C)C [HKI-357]", "Fibroblast", "Growth Rate", 0),
    ("CC1(C)CNc2cc(NC(=O)c3cccnc3NCc3ccncc3)ccc21.O=P(O)(O)O.O=P(O)(O)O [MOTESANIB DIPHOSPHATE]", "Fibroblast", "Growth Rate", 1),
    ("Cc1cn(-c2cc(NC(=O)c3ccc4c(c3)CN(c3cncnc3)C[C@@H]4C)cc(C(F)(F)F)c2)cn1", "Fibroblast", "Growth Rate", 0),
    ("CCOc1cc(N2CCC(O)CC2)ccc1Nc1ncc2c(n1)N(C1CCCC1)CCC(=O)N2C", "Fibroblast", "Growth Rate", 0),
    ("O=C(O)c1ccc2cc(-c3ccc(O)c(C45CC6CC(CC(C6)C4)C5)c3)ccc2c1 [O-DEMETHYLATED ADAPALENE]", "Fibroblast", "Growth Rate", 0),
    ("CC(C)Oc1ccc(-c2nn([C@@H](C)c3oc4ccc(F)cc4c(=O)c3-c3cccc(F)c3)c3ncnc(N)c23)cc1F [UMBRALISIB]", "Fibroblast", "Growth Rate", 1),
    ("Cc1cc(SCc2sc(-c3ccc(C(F)(F)F)c(F)c3)nc2C)ccc1OCC(=O)O", "Fibroblast", "Growth Rate", 1),
]

Growth Rate on Fibroblast for CCNC(=O)c1cc2c(N3CCOC[C@@H]3C)ccnc2[nH]1 is 1

Growth Rate on Fibroblast for CCC(=O)N1CC[C@H](Nc2ncnc3c2CN(c2cnc(OC)c(C(F)(F)F)c2)CC3)C1 [LENIOLISIB] is 0

Growth Rate on Fibroblast for CCCCc1nc(Cl)c(CO)n1Cc1ccc(-c2ccccc2-c2nn[nH]n2)cc1 [LOSARTAN] is 1

Growth Rate on Fibroblast for COc1cccc(CNC(=O)c2nc3scc(CN(C)Cc4ccccc4)c3c(=O)[nH]2)c1 [T-26f] is 0

Growth Rate on Fibroblast for Cc1c(Oc2ccc(F)cc2)c(OC(C)C)nn1-c1ccc(C2CC2)cn1 [IPP/CNRS-A019] is 0

Growth Rate on Fibroblast for COc1cccc(OC)c1-c1cc(C(=O)NC2(C(=O)O)C3CC4CC(C3)CC2C4)nn1-c1ccnc2cc(Cl)ccc12 (configuration not stated) [REMINERTANT] is 1

Growth Rate on Fibroblast for CCC1(C2=NCCN2)Cc2ccccc2O1 (configuration not stated) [EFAROXAN] is 0
